- Test system: IGROV1 ovarian
- assay-notes: NCI-60 one-dose screen, 48 h
- condition-context: 10 µM unless noted
This is part of a sample that, as a whole, favours compounds with a hit. Of some 83,000 tested, about 20% had one in any assay. The source made the active and inactive calls. Rule for the calls: active = growth percent below 10; inactive = the rest.
# output must be one of 1 = active, -1 = inactive

compound	group
COC(=O)Nc1ccc(-c2nc(-c3cccc(O)c3)c(-c3ccnc(Br)c3)[nH]2)cc1	-1
O=c1cc(-c2ccccc2)nc2sc(-c3c[nH]c4ccc(F)cc34)nn12	-1
CCOC(=O)C1=C(C)Nc2nnc(Nc3ccccc3)n2C1c1ccccc1 (centres undefined)	-1
NC(=O)c1c(NC(=O)c2cccc(OC(F)(F)F)c2)sc2c1CCC(=O)C2	-1
COc1ccc(NC2=C(Cl)C(=O)C(C)=C(C)C2=O)cc1	1
C=C(C)C(=O)O[C@H]1C[C@@]2(C)OC(=CC2=O)/C(C)=C\[C@H]2OC(=O)C(=C)[C@H]12	1
O=C(CCCCCCN1CC(=O)N2[C@@H](c3ccccc3)c3[nH]c4ccccc4c3C[C@H]2C1=O)NO	-1
CSc1nccc(-c2c(-c3ccc(F)c(OCc4ccc(F)cc4)c3)nc3sccn23)n1	-1

Turning now to a further record.
Hi, do you know how "CCOC(=O)c1c(NC(=O)c2cccc(C(F)(F)F)c2)sc2c(CN3CCN(C)CC3)c(O)ccc12" came out in this test?
1
